# protocol.summary: Half life in male ICR mouse at 50 mg/kg, po administered as single dose measured upto 24 hrs by HPLC analysis
# Assay type: ADME, organism-based
# condition: in vivo
observed.property: half-life (h)
Give bare numbers, in h.

Fill blank: measured half-life of the compound c1ccc(COc2ccc3ccccc3c2CCC2CCNCC2)cc1 is ____. 3.11

====

# protocol.summary: Ratio of drug concentration in male ICR mouse brain to plasma at 10 mg/kg, iv measured after 0.5 hrs by LC-MS/MS analysis
# Type: ADME, organism-based
# condition: brain and plasma, read-out: BPR
observed.property: Kp at 0.5 h
One number for each entry.

Fill blank: measured Kp at 0.5 h of the molecule c1ccc(COc2ccc3ccccc3c2CCC2CCNCC2)cc1 is ____. 7.8

====

# protocol.summary: Volume of distribution at steady state in male ICR mouse at 1 mg/kg, iv administered as single dose measured upto 24 hrs by HPLC analysis
# Format: ADME, organism-based
# condition: in vivo, read-out: Vdss
observed.property: Vd (L/kg)
One number for each entry, in L/kg.

Fill blank: measured Vd of the compound CN1CCC(NCc2c(OCc3ccc(Br)cc3)ccc3ccccc23)CC1 is ____. 132

====

# protocol.summary: AUC (0 to t) in male ICR mouse at 50 mg/kg, po administered as single dose measured upto 24 hrs by HPLC analysis
# Type: ADME, organism-based
# condition: in vivo
observed.property: AUC(0-t) at 24 h (ng·h/mL)
Answers are plain numbers, in ng·h/mL.

Fill blank: measured AUC(0-t) at 24 h of the compound c1ccc(COc2ccc3ccccc3c2CCC2CCNCC2)cc1 is ____. 7450

====

# protocol.summary: Ratio of drug concentration in male ICR mouse brain to plasma at 50 mg/kg, po measured after 2 hrs by LC-MS/MS analysis
# Assay type: ADME, organism-based
# condition: brain and plasma, read-out: BPR
observed.property: Kp at 2 h
One number for each entry.

Fill blank: measured Kp at 2 h of the compound c1ccc(COc2ccc3ccccc3c2CCC2CCNCC2)cc1 is ____. 1.34

====

# protocol.summary: AUC (0 to t) in male ICR mouse at 10 mg/kg, po administered as single dose measured upto 24 hrs by HPLC analysis
# Type: ADME, organism-based
# condition: in vivo
observed.property: AUC(0-t) at 24 h (ng·h/mL)
Give bare numbers, in ng·h/mL.

Fill blank: measured AUC(0-t) at 24 h of the compound CN1CCC(NCc2c(OCc3ccc(Br)cc3)ccc3ccccc23)CC1 is ____. 110

====

# protocol.summary: Inhibition of human KNa1.1 Y796H mutant expressed in HEK293T cells by patch-clamp electrophysiology method
# Format: cell-based
# condition: HEK-293T
observed.property: pIC50
Give bare numbers, as −log10 of the molar value.

Fill blank: measured pIC50 of the compound c1ccc(COc2ccc3ccccc3c2CCC2CCNCC2)cc1 is ____. 6.40

====

# protocol.summary: Half life in male ICR mouse at 10 mg/kg, iv administered as single dose measured upto 24 hrs by HPLC analysis
# Assay type: ADME, organism-based
# condition: in vivo
observed.property: half-life (h)
Give bare numbers, in h.

Fill blank: measured half-life of the compound c1ccc(COc2ccc3ccccc3c2CCC2CCNCC2)cc1 is ____. 2.46

====

# protocol.summary: Drug concentration in male ICR mouse brain at 10 mg/kg, po measured after 0.5 hrs by LC-MS/MS analysis
# Assay type: ADME, organism-based
# condition: read-out: Ct
observed.property: concentration at 0.5 h (ng/mL)
One number for each entry, in ng/mL.

Fill blank: measured concentration at 0.5 h of the compound CN1CCC(NCc2c(OCc3ccc(Br)cc3)ccc3ccccc23)CC1 is ____. 102

====

# protocol.summary: Oral bioavailability in male ICR mouse at 10 mg/kg administered as single dose measured upto 24 hrs by HPLC analysis
# Assay type: ADME, organism-based
# condition: in vivo
observed.property: bioavailability (%)
One number for each entry, in %.

Fill blank: measured bioavailability of the compound CN1CCC(NCc2c(OCc3ccc(Br)cc3)ccc3ccccc23)CC1 is ____. 17.8

====

# protocol.summary: Ratio of drug concentration in male ICR mouse brain to plasma at 10 mg/kg, iv measured after 2 hrs by LC-MS/MS analysis
# Format: ADME, organism-based
# condition: brain and plasma, read-out: BPR
observed.property: Kp at 2 h
Answers are plain numbers.

Fill blank: measured Kp at 2 h of the compound c1ccc(COc2ccc3ccccc3c2CCC2CCNCC2)cc1 is ____. 5.51

====

# protocol.summary: MRT (0 to t) in male ICR mouse at 1 mg/kg, iv administered as single dose measured upto 24 hrs by HPLC analysis
# Format: ADME, organism-based
# condition: in vivo
observed.property: MRT last at 24 h (h)
Give bare numbers, in h.

Fill blank: measured MRT last at 24 h of the compound CN1CCC(NCc2c(OCc3ccc(Br)cc3)ccc3ccccc23)CC1 is ____. 7.21

====

# protocol.summary: MRT (0 to t) in male ICR mouse at 10 mg/kg, po administered as single dose measured upto 24 hrs by HPLC analysis
# Format: ADME, organism-based
# condition: in vivo
observed.property: MRT last at 24 h (h)
Answers are plain numbers, in h.

Fill blank: measured MRT last at 24 h of the compound CN1CCC(NCc2c(OCc3ccc(Br)cc3)ccc3ccccc23)CC1 is ____. 5.37

====

# protocol.summary: Tmax in male ICR mouse at 10 mg/kg, po administered as single dose measured upto 24 hrs by HPLC analysis
# Assay type: ADME, organism-based
# condition: in vivo
observed.property: Tmax (min)
Give bare numbers, in min.

Fill blank: measured Tmax of the compound CN1CCC(NCc2c(OCc3ccc(Br)cc3)ccc3ccccc23)CC1 is ____. 10.2

====

# protocol.summary: Drug concentration in male ICR mouse brain at 10 mg/kg, iv measured after 2 hrs by LC-MS/MS analysis
# Format: ADME, organism-based
# condition: read-out: Ct
observed.property: concentration at 2 h (ng/mL)
Give bare numbers, in ng/mL.

Fill blank: measured concentration at 2 h of the molecule c1ccc(COc2ccc3ccccc3c2CCC2CCNCC2)cc1 is ____. 3330

====

# protocol.summary: Drug concentration in male ICR mouse brain at 10 mg/kg, po measured after 2 hrs by LC-MS/MS analysis
# Assay type: ADME, organism-based
# condition: read-out: Ct
observed.property: concentration at 2 h (ng/mL)
One number for each entry, in ng/mL.

Fill blank: measured concentration at 2 h of the molecule CN1CCC(NCc2c(OCc3ccc(Br)cc3)ccc3ccccc23)CC1 is ____. 158

====

# protocol.summary: Drug concentration in male ICR mouse plasma at 1 mg/kg, iv measured after 0.5 hrs by LC-MS/MS analysis
# Assay type: ADME, organism-based
observed.property: concentration at 0.5 h (ng/mL)
Answers are plain numbers, in ng/mL.

Fill blank: measured concentration at 0.5 h of the compound CN1CCC(NCc2c(OCc3ccc(Br)cc3)ccc3ccccc23)CC1 is ____. 12.8

====

# protocol.summary: Cmax in male ICR mouse at 10 mg/kg, iv administered as single dose measured upto 24 hrs by HPLC analysis
# Format: ADME, organism-based
# condition: in vivo
observed.property: Cmax (ng/mL)
Numbers only, in ng/mL.

Fill blank: measured Cmax of the compound c1ccc(COc2ccc3ccccc3c2CCC2CCNCC2)cc1 is ____. 2180

====

# protocol.summary: Clearance in male ICR mouse at 10 mg/kg, iv administered as single dose measured upto 24 hrs by HPLC analysis
# Type: ADME, organism-based
# condition: in vivo
observed.property: clearance (mL/min/kg)
Numbers only, in mL/min/kg.

Fill blank: measured clearance of the compound c1ccc(COc2ccc3ccccc3c2CCC2CCNCC2)cc1 is ____. 36.6

====

# protocol.summary: Volume of distribution at steady state in male ICR mouse at 10 mg/kg, iv administered as single dose measured upto 24 hrs by HPLC analysis
# Type: ADME, organism-based
# condition: in vivo, read-out: Vdss
observed.property: Vd (L/kg)
Numbers only, in L/kg.

Fill blank: measured Vd of the compound c1ccc(COc2ccc3ccccc3c2CCC2CCNCC2)cc1 is ____. 6.91

====

# protocol.summary: Clearance in male ICR mouse at 1 mg/kg, iv administered as single dose measured upto 24 hrs by HPLC analysis
# Type: ADME, organism-based
# condition: in vivo
observed.property: clearance
Reply with a number, then the unit it belongs to.

Fill blank: measured clearance of the compound CN1CCC(NCc2c(OCc3ccc(Br)cc3)ccc3ccccc23)CC1 is ____. 249 mL/min/kg

====

# protocol.summary: Cmax in male ICR mouse at 50 mg/kg, po administered as single dose measured upto 24 hrs by HPLC analysis
# Type: ADME, organism-based
# condition: in vivo
observed.property: Cmax (ng/mL)
Answers are plain numbers, in ng/mL.

Fill blank: measured Cmax of the molecule c1ccc(COc2ccc3ccccc3c2CCC2CCNCC2)cc1 is ____. 1290
